# Tested on: BXPC-3
# Assay Method Text: Growth inhibition of human BXPC3 cells after 48 hrs by SRB assay
# Assay type: functional
# Conditions: BXPC-3, 48 h
Readout: GI50

Use these answered entries as a reference point.
COc1cc2c3c(cc4ccccc4c3c1OC)N(C)C(=O)C2=O
> 10 µg/mL
Cc1cc2c3c(cc4ccccc4c3c1C)N(C)C(=O)C2=O
> 10 µg/mL
CCOc1ccc2c3c(cc4ccccc4c13)N(C)C(=O)C2=O
> 10 µg/mL
CN1C(=O)C(=O)c2cc3c(c4c2c1cc1ccccc14)OCO3
> 10 µg/mL

Now let's try a different one.
Find the recorded GI50 belonging to COc1ccc2c3c(cc4ccccc4c13)N(C)C(=O)C2=O and report it.
1.6 µg/mL

Provenance of the data: ChEMBL document CHEMBL1149665
